Biological target: the molecule itself
Experiment: SEC

[
  {
    "protein": "CP-Ser(K106A) (αβ heterodimer) (complex, human) chain 1: MLTELEKALNSIIDVYHKYSLIKGNFHAVYRDDLKKLLETESPQYIRKKGADVWFKELDINTDGAVNFQEFLILVIKMGVAAHKKSHEESHKE chain 2: MTSKMSQLERNIETIINTFHQYSVKLGHPDTLNQGEFKELVRKDLQNFLKKENKNEKVIEHIMEDLDTNADKQLSFEEFIMLMARLTWASHEKMHEGDEGPGHHHAPGLGEGTP",
    "binding result": "binds"
  }
]
